Sourced from the supplement of paper PMC7125110

Reported self-cleavage kobs at 2500 uM GlcN6P values for the following variants.
B1: glmS ribozyme (parent)
chain: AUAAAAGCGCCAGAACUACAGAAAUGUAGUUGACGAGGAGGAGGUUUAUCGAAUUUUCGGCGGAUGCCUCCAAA

# Variants of: B1
# protocolDetails: self-cleavage kobs at 2500 uM GlcN6P; higher = faster cleavage; RNA array
# reportedConditions: with glucosamine-6-phosphate
This sample holds only a part of the variants without activity.

| mutantDesignation | qualifierSymbol | self-cleavage kobs at 2500 uM GlcN6P [s⁻¹] |
| --- | --- | --- |
| G13A G43A U49C C58A | < | 1e-05 |
| G44U G60U C71A | < | 1e-05 |
| C34A G38A | < | 1e-05 |
| C8U A33U U46G A53G U55A | < | 1e-05 |
| C11U U55A C58G | = | 5.84e-05 |
| A12U A64G | = | 0.0169 |
| A42U U55G | = | 0.000164 |
| G29U U30A | = | 0.000198 |
| C8U A14G C50U C71G | < | 1e-05 |
| A6G G7U | < | 1e-05 |
| A12G A15U U45C G59A | < | 1e-05 |
| G9C U45G C50U G59U | < | 1e-05 |
| A6G A12C G40A | < | 1e-05 |
| C16U G59U | = | 4.99e-05 |
| C34U U56A | < | 1e-05 |
| C16G G32C | = | 4.67e-05 |
| U45C U46G | = | 0.000911 |
| G13U A39U U56A | = | 0.000101 |
| G7A C67A U69A | < | 1e-05 |
| A42G G44C U56A C70U | < | 1e-05 |
| A53U U54A U56A C70G | = | 8.57e-05 |
| A15G U31A A53G | = | 0.01 |
